tested on: SK-OV-3 ovarian; test: NCI tumour cell line growth inhibition, 48 h; in the data active = GI50 below about 0.43 µM; inactive = the rest
One label from this list, please: yes (1) (active), no (0) (inactive)

These solved cases illustrate the format of a correct answer.
# molecule, group-label
rows = [
    ("O=C(Nc1cc(Cl)ccc1O)c1ccc(Nc2ccnc(C(F)(F)F)c2)cc1", "no (0)"),
    ("O=C1c2ccccc2-c2c1c1ccccc1c(=O)n2CCN1CCNCC1", "no (0)"),
    ("O=C(NCc1ccc(Cn2c(=O)sn(-c3ccccc3)c2=O)cc1)OCc1ccc2cccc(O)c2n1", "no (0)"),
    ("COc1cc2c(Nc3cc(Cl)c(OC)c(Cl)c3)c(C#N)cnc2cc1OCCCN1CCN(C)CC1", "yes (1)"),
]

Now for another entry.
For COC(=O)c1cc2c(o1)-c1nccc3c1c(nc1ccccc13)C2=O , which call appears in the assay record?
no (0)

====

tested on: SF-295 CNS; experiment: NCI tumour cell line growth inhibition, 48 h
Answer each item with its documented TGI.

Take a look at these entries with their results.
# compound, test-system, obs-value
rows = [
    ("O=C(NC(COC(=O)C(Cc1ccccc1)NC(=O)c1ccccc1)Cc1ccccc1)c1ccccc1 (centres undefined)", "SF-295 CNS", "> 50 µM"),
    ("COc1ccc(CC2c3c(cc(OC)c(OC)c3OC)CCN2C)cc1OC (centres undefined)", "SF-295 CNS", "> 100 µM"),
    ("CC(=O)OCC1OC(n2cc(I)c(=O)[nH]c2=O)C(OC(C)=O)C(OC(C)=O)C1OC(C)=O (centres undefined)", "SF-295 CNS", "> 100 µM"),
    ("Cc1cn(-c2cc(C(=O)Nc3cccc(-n4ccc5c(NC(=O)c6ccccc6)nccc54)c3)cc(C(F)(F)F)c2)cn1", "SF-295 CNS", "1.44 µM"),
    ("Cc1cc2c(c(C(N)=O)c1C)-c1ccccc1C2=O", "SF-295 CNS", "> 100 µM"),
]

Could you report TGI for every entry in the following list?
1. COC(=O)c1c2c(cc3c1CCC3)CCC2
2. O=C(c1ccco1)c1c(C(F)(F)F)n([O-])c2ccc(C(F)(F)F)cc2[n+]1=O
3. NCCCN1CCN(CCCNc2ccc3nnn4c5ccccc5c(=O)c2c34)CC1
4. COC(=O)CCc1cc(OC)c2c(c1)[C@H](C(=O)OC)[C@@H](c1ccc(O)c(OC)c1)O2

["> 100 µM", "1.71 µM", "45.2 µM", "> 100 µM"]

====

tested on: NCI-H460 lung; experiment: NCI tumour cell line growth inhibition, 48 h
parameter: TGI

Use the examples below as a reference point.
# molecule, TGI
data = [
    ("COC(=O)/C(=N/O)C(C(=O)C=C(C)C)C(=O)C(=O)Nc1nc2ccc([N+](=O)[O-])cc2s1 (centres undefined)", "> 100 µM"),
    ("Cn1cc(-c2csc(-c3cn(CCCCN4CCCCC4)c4ccccc34)n2)c2cccnc21", "3.44 µM"),
    ("O=C1CCCN1c1ccccc1I(=O)=O", "> 100 µM"),
]

Now consider the entry below.
Quick one: give measured TGI for CC(=O)OCC1OC(n2cc(I)c(=O)[nH]c2=O)C(OC(C)=O)C(OC(C)=O)C1OC(C)=O (centres undefined)
> 100 µM
